compounds and their reported selectivity ratio
# ASSAY_OVERVIEW: Selective ratio of HC50 for human RBC to IC50 for human HeLa cells
# Format: toxicity
# CONDITIONS_USED: human red blood cells versus HeLa cells
Write the value as a bare number.

Record CC(C)C[C@@H]1NC(=O)[C@H](CCCN)NC(=O)[C@H](C(C)C)NC(=O)C2=CC3=C4CCCC4=C4C=C(S[C@]4(C)[C@@]3(C)S2)C(=O)[C@H]2CCCN2C(=O)[C@H](C)NC(=O)[C@H](CCCN)NC(=O)[C@H](C(C)C)NC(=O)[C@@H]2CCCN2C(=O)[C@@H](Cc2ccccc2)NC1=O . Reported selectivity ratio: 1.2

Record C[C@]12SC3=CC1=C1CCCC1=C1C=C(S[C@@]12C)C(=O)[C@H]1CCCN1C(=O)[C@H](CCCCN)NC(=O)[C@H](C12CC4CC(CC(C4)C1)C2)NC(=O)[C@H](CCCN)NC(=O)[C@@H]1CCCN1C(=O)[C@@H](Cc1ccccc1)NC(=O)[C@H](CCCN)NC(=O)[C@H](C12CC4CC(CC(C4)C1)C2)NC(=O)[C@H](CCCN)NC3=O . Reported selectivity ratio: 0.1

Record CC(C)C[C@@H]1NC(=O)[C@H](CCCNC(=N)N)NC(=O)[C@H](C(C)C)NC(=O)C2=CC3=C4CCCC4=C4C=C(S[C@]4(C)[C@@]3(C)S2)C(=O)[C@H]2CCCN2C(=O)[C@H](CC(C)C)NC(=O)[C@H](CCCNC(=N)N)NC(=O)[C@H](C(C)C)NC(=O)[C@@H]2CCCN2C(=O)[C@@H](Cc2ccccc2)NC1=O . Reported selectivity ratio: 0.3
